biological target: human muscarinic M4 receptor (Homo sapiens); construct: expressed in transfected cells; assay: Alphascreen Surefire phospho-ERK1/2 functional assay, M4; assay type: cell-based; conditions: CHO cells stably expressing human M4; phospho-ERK1/2; * = variable results; read-out: pEC50 M4 (converted)
parameter measured: EC50 (nM)

Reference set, count: 3
compound	EC50 [nM]
CCOC(=O)N1CCC2(CC(N3CCC(C4CCCN(C(C)C)C4=O)CC3)C2)C1 (single isomer, unassigned) [4-6 Isomer 2]	50.1
CCOC(=O)N1CCC2(CC(N3CCC(N4C(=O)OC[C@@H]4CC)CC3)C2)C1 (single isomer, unassigned) [2-122 Isomer 2]	158
CCOC(=O)N1CCC2(CC(N3CCC([C@@H]4CCCN4C(=O)OCCF)CC3)C2)C1 (single isomer, unassigned) [2-47 Isomer 2]	1000

1: CCOC(=O)N1CCC2(CC(N3CCC([C@@H]4CCCN4C(=O)N(C)CC(F)(F)F)CC3)C2)C1 (single isomer, unassigned) [2-55 Isomer 2]
2: CCOC(=O)N1CCC2(CC(N3CCC([C@@H]4CCCN4C(=O)CCc4ccccn4)CC3)C2)C1 (single isomer, unassigned) [2-62 Isomer 2]
Ask | Form field 'greater EC50' accepts 1 or 2 ; which applies? Identify your selection by its label.
Reply | 1

* * *

target: human muscarinic M4 receptor (Homo sapiens, UniProt P08173); construct: expressed in transfected cells; test: Alphascreen Surefire phospho-ERK1/2 functional assay, M4; type: cell-based; conditions: CHO cells stably expressing human M4; phospho-ERK1/2; * = variable results; read-out: pEC50 M4 (converted)
Sequence (P08173 whole entry): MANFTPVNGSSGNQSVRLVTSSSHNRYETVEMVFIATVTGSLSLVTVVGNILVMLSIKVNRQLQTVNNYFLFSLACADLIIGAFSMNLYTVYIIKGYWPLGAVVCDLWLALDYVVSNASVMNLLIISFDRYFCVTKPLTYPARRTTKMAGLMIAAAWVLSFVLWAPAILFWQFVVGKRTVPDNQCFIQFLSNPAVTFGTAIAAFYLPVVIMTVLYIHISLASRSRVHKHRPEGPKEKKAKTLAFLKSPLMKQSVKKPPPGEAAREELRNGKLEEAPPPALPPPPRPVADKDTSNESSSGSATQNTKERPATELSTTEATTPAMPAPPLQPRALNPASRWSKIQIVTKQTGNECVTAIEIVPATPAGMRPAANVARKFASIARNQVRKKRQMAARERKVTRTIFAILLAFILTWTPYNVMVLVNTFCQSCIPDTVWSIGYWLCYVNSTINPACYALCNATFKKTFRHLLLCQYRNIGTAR
parameter measured: EC50 (µM)

Before answering, review these 3 worked examples.
compound	EC50 / µM
CCOC(=O)N1CCC2(CC(N3CCC([C@@H]4CCCN4C(=O)OC4CCC4)CC3)C2)C1 (single isomer, unassigned) [2-43 Isomer 2]	0.0501
CCOC(=O)N1CCC2(CC(N3CCC(c4ncc(C)n4C)CC3)C2)C1 (single isomer, unassigned) [1-10 Isomer 2]	0.251
COC(=O)N1CCC2(CC(N3CCC(n4cc(C)cn4)CC3)C2)C1 (single isomer, unassigned) [1-42 Isomer 2]	0.00631

I: CCOC(=O)N1CCC2(CC(N3CCC([C@@H]4CCCN4C(=O)N4CCC(F)(F)C4)CC3)C2)C1 (single isomer, unassigned) [2-37 Isomer 2]
II: CCOC(=O)N1CCC2(CC(N3CCC(C4CCCN4C(=O)C(F)(F)F)CC3)C2)C1 (single isomer, unassigned) [2-4 Isomer 2]
III: CCOC(=O)N1CCC2(CC(N3CCC([C@@H]4CCCN4C(=O)NC4CC(F)(F)C4)CC3)C2)C1 (single isomer, unassigned) [2-38 Isomer 2]
IV: CCOC(=O)N1CCC2(CC(N3CCC([C@@H]4CCCN4C(=O)N4Cc5cccnc5C4)CC3)C2)C1 (single isomer, unassigned) [2-133 Isomer 1]
Ask | Ascending by EC50, please: list the compounds accordingly. Form entry: labels listed in requested order.
Reply | III, IV, I, II

I: COc1ncccc1C1CCN(C2CC3(CCN(C(=O)OCCF)C3)C2)CC1 (single isomer, unassigned) [3-5 Isomer 2]
II: CCOC(=O)N1CCC2(CC(N3CCC([C@@H]4CCCN4C(=O)N(C)OC)CC3)C2)C1 (single isomer, unassigned) [2-34 Isomer 1]
Ask | Given the listed items, does I or II have the lesser reported EC50? Answer = label.
Reply | I
